details: human
Returns: string. Value is satisfied if measured reference log Vdss is below -0.4, and not satisfied if it is greater than or equal to it.

Illustrative cases are given below, each with its answer.
INSERT INTO assay_data (compound, classassignment) VALUES
  ('CC(C(=O)O)c1ccc(-c2ccccc2)c(F)c1 (centres unmarked)', 'satisfied'),
  ('CC(=O)CC(c1ccccc1)c1c(O)c2ccccc2oc1=O (centres unmarked)', 'satisfied'),
  ('Nc1cc(N2CCCCC2)nc(N)[n+]1[O-]', 'not satisfied'),
  ('Cc1onc(-c2c(F)cccc2Cl)c1C(=O)N[C@@H]1C(=O)N2[C@@H]1SC(C)(C)[C@@H]2C(=O)O', 'satisfied'),
  ('CC(=O)Nc1ccccc1 [Acetanilide]', 'not satisfied'),
  ('CC(C)(C)NCC(O)COc1cccc2c1CC(O)C(O)C2 (centres unmarked)', 'not satisfied'),
  ('COC1=CC(=O)C[C@@H](C)[C@]12Oc1c(Cl)c(OC)cc(OC)c1C2=O', 'not satisfied'),
  ('NC(N)=Nc1nc(CSCCC(N)=NS(N)(=O)=O)cs1', 'not satisfied'),
  ('CN(C)CCCN1c2ccccc2Sc2ccc(Cl)cc21', 'not satisfied'),
  ('COc1ccc(NS(=O)(=O)c2ccc(N)cc2)nn1', 'satisfied');

Query: Regarding CCOC(=O)C1=C(C)NC(C)=C(C(=O)OC)C1c1cccc([N+](=O)[O-])c1 (centres unmarked) , kindly confirm whether its reference log Vdss is beneath -0.4.
Reply: not satisfied

Query: Lab log: compare recorded reference log Vdss with -0.4; is it strictly lower for Cc1ccc(C)c(OCCCC(C)(C)C(=O)O)c1 ?
Reply: satisfied

Query: Consider the compound CCN1CCCC1CNC(=O)c1cc(S(N)(=O)=O)ccc1OC (centres unmarked) [Sulpiride] . Is its reference log Vdss strictly less than -0.4?
Reply: not satisfied
